run_description: Cmax in Beagle dog at 3 mg/kg, po upto 24 hrs by LC/MS/MS analysis
Format: ADME, organism-based, Canis lupus familiaris
Parameters: dose 3 mg/kg, time < 24 hrs, route po
assay_conditions: in vivo
test_readout: Cmax
Please provide the amount together with its unit, number first.

Look at this compound and give its reported Cmax. `O=C(Nc1ccn(-c2ccnc(F)c2)n1)C1(c2ccccc2F)CC1` 261 ng/mL

====

run_description: Unbound brain-to-plasma concentration ratio in rat at 3 mg/kg, po measured after 120 mins
Format: ADME, organism-based
assay_conditions: brain and plasma, read-out: K(p,uu,brain)
test_readout: Kp uu at 2 h
// no unit, no text: just the number

Entry `O=C(Nc1ccn(-c2ccnc(F)c2)n1)C1(c2ccccc2F)CC1` : reported Kp uu at 2 h = ? 1.1

====

tested_target: Very long chain fatty acid elongase 1 (Homo sapiens)
Sequence (Q9BW60 whole entry): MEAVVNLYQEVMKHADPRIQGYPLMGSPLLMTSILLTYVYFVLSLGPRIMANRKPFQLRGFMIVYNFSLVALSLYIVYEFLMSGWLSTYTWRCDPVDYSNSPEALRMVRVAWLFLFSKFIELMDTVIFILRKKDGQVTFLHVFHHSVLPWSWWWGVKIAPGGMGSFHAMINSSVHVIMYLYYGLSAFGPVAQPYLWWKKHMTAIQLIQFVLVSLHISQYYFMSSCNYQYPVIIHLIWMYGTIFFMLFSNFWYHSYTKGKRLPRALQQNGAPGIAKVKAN
run_description: Inhibition of ELOVL1 in human HEK2936E cells assessed as reduction of C26:0 LPC synthesis incubated for 48 hrs by cellular assay
Assay type: cell-based
pIC50: −log10 of the molar value.
pIC50 of 7 or higher: T. Under 7: F.

Quick check: does `O=C(Nc1ccn(-c2ccncn2)n1)C1(c2ccccc2F)CC1` have pIC50 greater than or equal to 7? T

Also check CN(C)C(C(=O)Nc1ccn(-c2ccccc2)n1)c1ccccc1 (stereo unspecified) F

// repeat for `CC(C)(C(=O)Nc1ccn(-c2ccccc2)n1)c1ccccc1` and report F

Also need `O=C(Nc1ccn(-c2cncc(F)c2)n1)C1(c2cccc(F)c2)CC1` , thanks. F

Same question, `O=C(Nc1ccn(-c2cncc(F)c2)n1)C1(c2ccccc2F)CC1` this time T

Next entry: `Nc1cc(-n2ccc(NC(=O)C3(c4ccccc4F)CC3)n2)ccn1` F

Subsequent entry: CC1(C)CC1(C(=O)Nc1ccn(-c2ccccc2)n1)c1ccccc1 (stereo unspecified) F

Same question for `N#Cc1cccc(C2(C(=O)Nc3ccn(-c4cncc(F)c4)n3)CC2)c1` please. F

Repeat with `COc1cccc(C2(C(=O)Nc3ccn(-c4cncc(F)c4)n3)CC2)c1` F

For `O=C(Nc1ccn(-c2ccnc(F)c2)n1)C1(c2ccccc2F)CC1` then? T

Similarly, CCOC(C(=O)Nc1ccn(-c2ccccc2)n1)c1ccccc1 (stereo unspecified) ? F

====

tested_target: Very long chain fatty acid elongase 1 (Homo sapiens, UniProt Q9BW60)
run_description: Inhibition of ELOVL1 in human HEK2936E cells assessed as reduction of C26:0 LPC synthesis incubated for 48 hrs by cellular assay
Format: cell-based
IC50 vs 300 nM: less than gives MET; not less than gives NOT MET.

IC50 strictly < 300 nM for this compound? `O=C(Cc1ccccc1F)Nc1nccc(-c2ccccc2)n1` NOT MET

Then `CC[C@@H](C(=O)Nc1ccn(-c2ccccc2)n1)c1ccccc1` ? NOT MET

What do you have for `O=C(Cc1ccccc1)Nc1nc(-c2ccccc2)cs1` ? NOT MET

Also `C[C@@H](C(=O)Nc1ccn(-c2ccccc2)n1)c1ccccc1` , if possible. MET

Field entry: `O=C(Nc1ccn(-c2ccccc2)n1)C1(c2ccccc2)COC1` MET

Another compound: `O=C(Nc1ccn(-c2ccccc2)n1)C1(c2ccccc2)CC1` MET

And the next one, `O=C(Cc1ccccc1F)Nc1ccn(-c2ccccc2)n1` ? MET

Also `O=C(Nc1ccn(-c2cncc(F)c2)n1)C1(c2ccccc2)CC1` ? MET

Quick one: `O=C(Cc1ccccc1F)Nc1ncn(-c2ccccc2)n1` NOT MET

Again, but for `O=C(Nc1ccn(-c2ccccc2)n1)C1(c2ccccc2F)CC1` MET

And then `O=C(Cc1ccccc1F)Nc1cnn(-c2ccccc2)c1` , what is it? NOT MET

====

run_description: Cmax in Cynomolgus monkey at 3 mg/kg, po upto 24 hrs by LC/MS/MS analysis
Assay type: ADME, organism-based, Macaca fascicularis
Set-up: time < 24 hrs, dose 3 mg/kg, route po
assay_conditions: in vivo
test_readout: Cmax (µg/mL)
The reply should contain only the number, in µg/mL.

Field request: Cmax | item: `O=C(Nc1ccn(-c2ccnc(F)c2)n1)C1(c2ccccc2F)CC1` 0.404

====

tested_target: Very long chain fatty acid elongase 1 (Homo sapiens, UniProt Q9BW60)
Sequence (Q9BW60 whole entry): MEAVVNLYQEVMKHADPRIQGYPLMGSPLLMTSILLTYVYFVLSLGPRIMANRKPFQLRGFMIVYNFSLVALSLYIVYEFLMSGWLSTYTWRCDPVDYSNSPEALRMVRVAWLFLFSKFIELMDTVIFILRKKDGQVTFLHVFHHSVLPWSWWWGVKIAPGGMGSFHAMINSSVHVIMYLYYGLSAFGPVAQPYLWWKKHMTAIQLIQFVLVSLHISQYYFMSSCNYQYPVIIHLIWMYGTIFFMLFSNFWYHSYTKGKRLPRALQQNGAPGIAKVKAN
run_description: Inhibition of ELOVL1 in human microglia assessed as reduction of C26:0 VLCFA synthesis incubated for 48 hrs by cellular assay
Type: cell-based
test_readout: IC50
Enter the number, and then the unit.

Suppose we examine the compound `O=C(Nc1ccn(-c2ccnc(F)c2)n1)C1(c2ccccc2F)CC1` ; what IC50 value has been reported? 11 nM

====

run_description: Volume of distribution at steady state in Sprague-Dawley rat at 1 mg/kg, iv upto 48 hrs by LC/MS/MS analysis
Assay type: ADME, organism-based
assay_conditions: in vivo, read-out: Vdss
test_readout: Vd (L/kg)
Report only the number, with the unit L/kg understood.

Need Vd, item `O=C(Nc1ccn(-c2ccnc(F)c2)n1)C1(c2ccccc2F)CC1` 4

====

run_description: Cmax in Sprague-Dawley rat at 3 mg/kg, po upto 24 hrs by LC/MS/MS analysis
Assay type: ADME, organism-based
Parameters: dose 3 mg/kg, time < 24 hrs, route po
assay_conditions: in vivo
test_readout: Cmax

Requested read-out: Cmax. Entry: `O=C(Nc1ccn(-c2ccnc(F)c2)n1)C1(c2ccccc2F)CC1` 174 ng/mL

====

run_description: Oral bioavailability in Cynomolgus monkey at 3 mg/kg upto 24 hrs by LC/MS/MS analysis
Format: ADME, organism-based, Macaca fascicularis
assay_conditions: in vivo
test_readout: bioavailability (%)
Reply numerically in %, unit not repeated.

Given `O=C(Nc1ccn(-c2ccnc(F)c2)n1)C1(c2ccccc2F)CC1` , state its recorded bioavailability. 100

====

run_description: Volume of distribution at steady state in mouse at 1 mg/kg, iv upto 48 hrs by LC/MS/MS analysis
Format: ADME, organism-based
assay_conditions: in vivo, read-out: Vdss
test_readout: Vd
Give your result as the value with the unit written after it.

Reported Vd, compound `O=C(Nc1ccn(-c2ccnc(F)c2)n1)C1(c2ccccc2F)CC1` : ____ 2.6 L/kg

====

run_description: Tmax in Sprague-Dawley rat at 3 mg/kg, po upto 24 hrs by LC/MS/MS analysis
Format: ADME, organism-based
assay_conditions: in vivo
test_readout: Tmax

Which measured Tmax value corresponds to `O=C(Nc1ccn(-c2ccnc(F)c2)n1)C1(c2ccccc2F)CC1` ? 24 min

====

run_description: Apparent permeability across apical to basolateral side in wild-type dog MDCK cells by LC-MS analysis
Format: ADME, cell-based, Canis lupus familiaris
test_readout: Papp A→B (×10⁻⁶ cm/s)
The response must be a number in ×10⁻⁶ cm/s with no trailing unit.

Return reported Papp A→B; argument: `O=C(Nc1ccn(-c2ccnc(F)c2)n1)C1(c2ccccc2F)CC1` 10.1

====

tested_target: UniProtKB Q9BW60
run_description: Inhibition of ELOVL1 in human HEK2936E cells assessed as reduction of C26:0 LPC synthesis incubated for 48 hrs by cellular assay
Assay type: cell-based
test_readout: IC50 (nM)
Please respond with the number in nM and leave the unit unwritten.

Quick check: IC50 on UniProtKB Q9BW60, item `Cc1ccccc1C1(C(=O)Nc2ccn(-c3cncc(F)c3)n2)CC1` ? 400

For `O=C(Nc1ccn(-c2cncc(F)c2)n1)C1(c2cccc(F)c2F)CC1` then? 140

Next: `O=C(Cc1ccccc1F)Nc1nc(-c2ccccc2)cs1` 280

Again, but for `O=C(Cc1ccccc1)Nc1ccn(-c2ccccc2)n1` 70

====

Please provide measured log10 hepatocyte CLint for the entries that follow.
run_description: Intrinsic clearance in rat hepatocytes assessed per million cells
Format: ADME, cell-based, Hepatocyte
assay_conditions: read-out: CLH
Values below are the log10 of the recorded hepatocyte CLint, with µL/min/1e6 cells as the unit.

Please report the recorded log10 hepatocyte CLint for `O=C(Nc1ccn(-c2cncc(F)c2)n1)C1(c2cc(F)ccc2F)CC1` . 1.40

Again, but for O=C(Nc1ccn(-c2ccccc2)n1)C1(c2ccccc2)CC1(F)F (stereo unspecified) 2.44

And the next one, `Cc1cc(-n2ccc(NC(=O)C3(c4ccccc4F)CC3)n2)ccn1` ? 1.89

Cool, now `O=C(Nc1ccn(-c2ccccc2)n1)C1(c2ccccc2)COC1` 1.51

One more molecule: `O=C(Nc1ccn(-c2ncns2)n1)C1(c2ccccc2F)CC1` 1.40

Also check `O=C(Nc1ccn(-c2ccccc2)n1)C1(c2ccccc2F)CC1` 2.37
